Items are presented alongside their recorded melting point.

INSERT INTO assay_data (compound, experimentalendpoint, result) VALUES
  ('O=P(O)(O)OCC(O)CO (configuration not stated)', 'melting point', '-25 °C'),
  ('Nc1ccc2c3c(cccc13)C(=O)NC2=O', 'melting point', '360 °C'),
  ('N#Cc1cccc(Cn2c(=O)oc3ccccc32)c1', 'melting point', '170 to 172 °C'),
  ('O=Cc1ccccc1-c1ccccc1C(=O)O', 'melting point', '128 to 133 °C'),
  ('Cc1nc(O)nc(O)c1C', 'melting point', '297 to 300 °C');

Requested read-out: melting point. Entry: OCC1OC(O)CC(O)C1O (configuration not stated) 150 °C

# iterate: CC(=O)Nc1ccc(C#N)cc1OC(F)(F)F 118 to 120 °C

---

Binary call on melting point with cut-off 80 °C: strictly below means 1, and equality or higher means 0.

Worked examples, 4 molecules total:
INSERT INTO measurements (smilesrepresentation, class) VALUES
  ('FC(F)(Br)C(F)(F)Br', 1),
  ('Oc1ccc(Cl)c(Cl)c1Cl', 0),
  ('Cc1ccc(-c2onc(C(=O)c3ccc4ccccc4c3)c2S(=O)(=O)c2ccccc2)cc1', 0),
  ('O=C(O)C=CC(=O)C=CC(=O)O', 0);

Continue with the molecule presented below.
A record lists CNc1cnn(-c2cccc(C(F)(F)F)c2)c(=O)c1Cl . Is its melting point below 80 °C? 0

---

Items are presented alongside their recorded melting point.
Unit °C implied. Number only.

INSERT INTO results (compound, numericresult) VALUES
  ('N#Cc1ncc(Cl)cc1Cl', 101),
  ('Oc1ncnc2cccc(F)c12', 238),
  ('CC(C)(C)N(NC(=O)c1ccccc1)C(=O)c1cccc(C(F)(F)F)c1', 204),
  ('c1ccc(-c2nc(-c3ccccc3)nc(-c3ccccc3)n2)cc1', 235),
  ('Oc1cccc(S)c1', 16.5);

Requested read-out: melting point. Entry: O=C1CCCCC1Cl (centres undefined) 23

# iterate: NNC(=O)CCCO 93

---

Items are presented alongside their recorded melting point.
Unit °C implied. Number only.

Requested read-out: melting point. Entry: CCOC(=O)c1[nH]c(C)c(S(=O)(=O)Cl)c1C 150

---

Items are presented alongside their recorded melting point.
Unit °C implied. Number only.

Reference set, count: 3
INSERT INTO results (smilesrepresentation, numericresult) VALUES
  ('O=C(O)Cn1c(=O)sc2cccc(Cl)c21', 193),
  ('CCCCCCCCCCCCCC(CCCCCCCCCCCC)CCCCCCCCCCCC', 13.7),
  ('CN1CCc2cc(O)c(O)cc2C1', 255);

Turning now to a further molecule:
Requested read-out: melting point. Entry: CC(C)(C)OC(=O)C(Cl)(Cl)Cl 25.5

---

Respond with 1 (yes) for melting point values of 200 °C and above, 0 (no) for values below.

INSERT INTO results (molecule, class) VALUES
  ('COC(=O)c1ccc(I)c(C)c1', '0 (no)'),
  ('C[Si](C)(C)Nc1ncnc2c1ncn2[Si](C)(C)C', '0 (no)'),
  ('COc1cc(/C=C\C(=O)NCCc2ccc(OCc3ccccc3)c(OC)c2)ccc1OCc1ccccc1', '0 (no)'),
  ('Clc1ccc(N2CCNCC2)cc1Cl', '0 (no)'),
  ('OCCn1ccnc1', '0 (no)');

I'd appreciate it if you could say whether O=C(OCCC(OC(=O)c1ccccc1)c1ccccc1)c1ccccc1 (stereo unspecified) has melting point at least equal to 200 °C. 0 (no)

# iterate: Cc1ccc(NC(=S)Nc2ccc(C)cc2)cc1 0 (no)

# iterate: Cn1c(=O)c(C2=NNC(=O)C2=Cc2ccccc2O)c(O)c2ccccc21 1 (yes)

# iterate: CCOC(=O)c1nn(-c2ccc(C)cc2)c(C)c1C(=O)C1=NOC2C(=O)N(c3ccc(OC)cc3)C(=O)C12 (stereo unspecified) 1 (yes)

# iterate: COc1ccc2ccccc2c1Br 0 (no)
